target: T1, integrin αVβ5 (UniProt P06756 31-992; P18084 24-719); experiment: ELISA, coated integrin, anti-MICA-HRP
T1 construct: Coated on the ELISA plate
T1 sequence (P06756 31-992, chain 1 of 2): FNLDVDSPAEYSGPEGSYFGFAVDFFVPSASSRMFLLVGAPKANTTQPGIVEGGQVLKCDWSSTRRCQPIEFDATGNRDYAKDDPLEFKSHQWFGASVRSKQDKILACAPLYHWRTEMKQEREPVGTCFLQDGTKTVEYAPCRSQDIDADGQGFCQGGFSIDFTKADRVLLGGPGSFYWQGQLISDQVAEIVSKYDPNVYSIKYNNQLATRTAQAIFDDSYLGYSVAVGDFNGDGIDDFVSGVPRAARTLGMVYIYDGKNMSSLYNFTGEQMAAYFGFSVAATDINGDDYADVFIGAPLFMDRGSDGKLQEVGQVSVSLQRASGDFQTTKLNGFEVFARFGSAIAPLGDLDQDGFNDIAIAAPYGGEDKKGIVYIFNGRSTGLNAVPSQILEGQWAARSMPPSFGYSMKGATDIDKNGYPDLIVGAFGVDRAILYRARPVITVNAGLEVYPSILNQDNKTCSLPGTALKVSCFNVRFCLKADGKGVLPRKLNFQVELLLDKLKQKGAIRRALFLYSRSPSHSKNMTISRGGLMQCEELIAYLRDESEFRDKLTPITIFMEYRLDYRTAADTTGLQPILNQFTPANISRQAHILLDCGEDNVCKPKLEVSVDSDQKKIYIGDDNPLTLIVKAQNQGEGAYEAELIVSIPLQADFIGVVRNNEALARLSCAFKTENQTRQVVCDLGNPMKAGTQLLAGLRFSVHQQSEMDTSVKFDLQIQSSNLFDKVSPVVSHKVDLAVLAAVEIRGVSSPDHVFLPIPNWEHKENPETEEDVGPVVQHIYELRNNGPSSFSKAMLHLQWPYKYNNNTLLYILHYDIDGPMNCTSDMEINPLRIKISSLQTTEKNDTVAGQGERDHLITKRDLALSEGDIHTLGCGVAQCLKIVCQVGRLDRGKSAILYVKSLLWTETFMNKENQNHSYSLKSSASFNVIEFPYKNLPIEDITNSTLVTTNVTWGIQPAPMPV
T1 sequence (P18084 24-719, chain 2 of 2): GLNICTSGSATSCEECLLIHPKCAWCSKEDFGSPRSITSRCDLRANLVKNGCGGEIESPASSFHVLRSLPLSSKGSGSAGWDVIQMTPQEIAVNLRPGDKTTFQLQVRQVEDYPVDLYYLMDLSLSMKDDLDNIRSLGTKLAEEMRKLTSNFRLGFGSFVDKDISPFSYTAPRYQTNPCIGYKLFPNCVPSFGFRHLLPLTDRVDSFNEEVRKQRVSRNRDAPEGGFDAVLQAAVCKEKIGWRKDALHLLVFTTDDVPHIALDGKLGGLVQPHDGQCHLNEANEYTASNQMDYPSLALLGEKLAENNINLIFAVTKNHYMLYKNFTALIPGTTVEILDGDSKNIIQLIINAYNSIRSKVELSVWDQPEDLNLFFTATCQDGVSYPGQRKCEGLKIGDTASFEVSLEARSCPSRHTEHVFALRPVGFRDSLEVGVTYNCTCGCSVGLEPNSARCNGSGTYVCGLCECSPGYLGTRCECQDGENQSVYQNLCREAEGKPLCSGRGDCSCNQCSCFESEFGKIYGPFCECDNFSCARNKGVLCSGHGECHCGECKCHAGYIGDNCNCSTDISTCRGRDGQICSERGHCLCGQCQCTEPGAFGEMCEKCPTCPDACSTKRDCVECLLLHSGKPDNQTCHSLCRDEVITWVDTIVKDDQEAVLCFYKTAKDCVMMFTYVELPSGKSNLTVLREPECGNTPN
Measured αvβ5 signal/ng values are reported for all entries that follow.
Write the value in signal/ng MICA as a bare number.

Worked cases, answers included:
| binder | αvβ5 signal/ng (signal/ng MICA) |
| --- | --- |
| soluble MICA generated from pKK45 (loop 1 insert extended 3.3sp) (designed binder, From pKK34 (His6, Glu125); secreted by 293T cells; also called 1-3.3sp) HHHHHHEPHSLRYNLTVLSWDGSVQSGFLTEVHLDGQPFLRCDRQKCRAKPQGQWAEDVLGNKTWDRETRDLTGNGKDLRMTLAHIKDQKEGLHSLQEIRVCEIHEDNSTRSSQHFYYDGELFLSQNLETEEWTMPQSSRAQTLAMNVRNFLKEDAMKTKTHYHAMHADCLQELRRYLKSGVVLRRTVPPMVNVTSGGSGGGSRVPRGDSDLTSGGSGGGVTCRASGFYPWNITLSWRQDGVSLSHDTQQWGDVLPDGNGTYQTWVATRICQGEEQRFTCYMEHSGNHSTHPVPSGK | 9.92 |
| soluble MICA generated from pKK54 (tight loop 1 insert T-3.3) (designed binder, From pSW324 (from pKK34: His6, Glu125); secreted by 293T cells; also called 1-T-3.3) HHHHHHEPHSLRYNLTVLSWDGSVQSGFLTEVHLDGQPFLRCDRQKCRAKPQGQWAEDVLGNKTWDRETRDLTGNGKDLRMTLAHIKDQKEGLHSLQEIRVCEIHEDNSTRSSQHFYYDGELFLSQNLETEEWTMPQSSRAQTLAMNVRNFLKEDAMKTKTHYHAMHADCLQELRRYLKSGVVLRRTVPPMVNRVPRGDSDLTCRASGFYPWNITLSWRQDGVSLSHDTQQWGDVLPDGNGTYQTWVATRICQGEEQRFTCYMEHSGNHSTHPVPSGK | 19.3 |
| soluble MICA generated from pKK36 (loop 1 insert 3.1) (designed binder, From pKK34 (His6, Glu125); secreted by 293T cells; also called 1-3.1) HHHHHHEPHSLRYNLTVLSWDGSVQSGFLTEVHLDGQPFLRCDRQKCRAKPQGQWAEDVLGNKTWDRETRDLTGNGKDLRMTLAHIKDQKEGLHSLQEIRVCEIHEDNSTRSSQHFYYDGELFLSQNLETEEWTMPQSSRAQTLAMNVRNFLKEDAMKTKTHYHAMHADCLQELRRYLKSGVVLRRTVPPMVNVTSRGDHPRTQVTCRASGFYPWNITLSWRQDGVSLSHDTQQWGDVLPDGNGTYQTWVATRICQGEEQRFTCYMEHSGNHSTHPVPSGK | 18.1 |
| soluble MICA generated from pKK49 (loop 3 insert extended 3.3sp) (designed binder, From pSW276 (no N-terminal His tag, Lys125); secreted by 293T cells; also called 3-3.3sp) EPHSLRYNLTVLSWDGSVQSGFLTEVHLDGQPFLRCDRQKCRAKPQGQWAEDVLGNKTWDRETRDLTGNGKDLRMTLAHIKDQKEGLHSLQEIRVCEIHEDNSTRSSQHFYYDGELFLSQNLETKEWTMPQSSRAQTLAMNVRNFLKEDAMKTKTHYHAMHADCLQELRRYLKSGVVLRRTVPPMVNVTRSEASEGNITVTCRASGFYPWNITLSWRQDGVSLSHDTQQWGDVLPDGNGTYQTWVATRISGGSGGGSRVPRGDSDLTSGGSGGGCYMEHSGNHSTHPVPSGK | 5.51 |
| soluble MICA generated from pKK55 (tight loop 1 insert T-5.1) (designed binder, From pSW324 (from pKK34: His6, Glu125); secreted by 293T cells; also called 1-T-5.1) HHHHHHEPHSLRYNLTVLSWDGSVQSGFLTEVHLDGQPFLRCDRQKCRAKPQGQWAEDVLGNKTWDRETRDLTGNGKDLRMTLAHIKDQKEGLHSLQEIRVCEIHEDNSTRSSQHFYYDGELFLSQNLETEEWTMPQSSRAQTLAMNVRNFLKEDAMKTKTHYHAMHADCLQELRRYLKSGVVLRRTVPPMVNVTRGDTFTQSCRASGFYPWNITLSWRQDGVSLSHDTQQWGDVLPDGNGTYQTWVATRICQGEEQRFTCYMEHSGNHSTHPVPSGK | 17.4 |
| soluble MICA generated from pKK37 (loop 1 insert 3.2) (designed binder, From pKK34 (His6, Glu125); secreted by 293T cells; also called 1-3.2) HHHHHHEPHSLRYNLTVLSWDGSVQSGFLTEVHLDGQPFLRCDRQKCRAKPQGQWAEDVLGNKTWDRETRDLTGNGKDLRMTLAHIKDQKEGLHSLQEIRVCEIHEDNSTRSSQHFYYDGELFLSQNLETEEWTMPQSSRAQTLAMNVRNFLKEDAMKTKTHYHAMHADCLQELRRYLKSGVVLRRTVPPMVNVTRTSRGDHPRTQVTCRASGFYPWNITLSWRQDGVSLSHDTQQWGDVLPDGNGTYQTWVATRICQGEEQRFTCYMEHSGNHSTHPVPSGK | 22.4 |

Please supply the value of reported αvβ5 signal/ng for the item soluble MICA generated from pKK39 (loop 1 insert 3.4) (designed binder, From pKK34 (His6, Glu125); secreted by 293T cells; also called 1-3.4) HHHHHHEPHSLRYNLTVLSWDGSVQSGFLTEVHLDGQPFLRCDRQKCRAKPQGQWAEDVLGNKTWDRETRDLTGNGKDLRMTLAHIKDQKEGLHSLQEIRVCEIHEDNSTRSSQHFYYDGELFLSQNLETEEWTMPQSSRAQTLAMNVRNFLKEDAMKTKTHYHAMHADCLQELRRYLKSGVVLRRTVPPMVNVTRSARGDSDHRVTCRASGFYPWNITLSWRQDGVSLSHDTQQWGDVLPDGNGTYQTWVATRICQGEEQRFTCYMEHSGNHSTHPVPSGK
19.7

Please supply the value of reported αvβ5 signal/ng for the item soluble MICA generated from pKK40 (loop 1 insert 5.1) (designed binder, From pKK34 (His6, Glu125); secreted by 293T cells; also called 1-5.1) HHHHHHEPHSLRYNLTVLSWDGSVQSGFLTEVHLDGQPFLRCDRQKCRAKPQGQWAEDVLGNKTWDRETRDLTGNGKDLRMTLAHIKDQKEGLHSLQEIRVCEIHEDNSTRSSQHFYYDGELFLSQNLETEEWTMPQSSRAQTLAMNVRNFLKEDAMKTKTHYHAMHADCLQELRRYLKSGVVLRRTVPPMVNVTVTRGDTFTQSVTCRASGFYPWNITLSWRQDGVSLSHDTQQWGDVLPDGNGTYQTWVATRICQGEEQRFTCYMEHSGNHSTHPVPSGK
27.1

Please supply the value of reported αvβ5 signal/ng for the item soluble MICA generated from pKK38 (loop 1 insert 3.3) (designed binder, From pKK34 (His6, Glu125); secreted by 293T cells; also called 1-3.3) HHHHHHEPHSLRYNLTVLSWDGSVQSGFLTEVHLDGQPFLRCDRQKCRAKPQGQWAEDVLGNKTWDRETRDLTGNGKDLRMTLAHIKDQKEGLHSLQEIRVCEIHEDNSTRSSQHFYYDGELFLSQNLETEEWTMPQSSRAQTLAMNVRNFLKEDAMKTKTHYHAMHADCLQELRRYLKSGVVLRRTVPPMVNVTRVPRGDSDLTVTCRASGFYPWNITLSWRQDGVSLSHDTQQWGDVLPDGNGTYQTWVATRICQGEEQRFTCYMEHSGNHSTHPVPSGK
30.7

Measured values drawn from patent US20150165065A1 for this set.
